// provenance: ChEMBL document CHEMBL1124864

For each of the compounds below, state its log10 of Kb.
Organism: Cavia porcellus
PROCEDURE_TEXT: In vitro functional studies in guinea pig ileum
A difference of one corresponds to tenfold Kb; all values are log10 with Kb in nM.

Input: Provide measured log10 of Kb value, entry: C[N+]1(C)C2CC(OC(=O)C(CO)c3ccccc3)CC1C1OC12 (stereo unspecified)
Output: -0.77

Input: Provide measured log10 of Kb value, entry: Cl.N=CN1C2CC(OC(=O)C(CO)c3ccccc3)CC1C1OC12 (stereo unspecified)
Output: 0.23

Input: Provide measured log10 of Kb value, entry: Cl.N=C(N)N1C2CCC1CC(OC(=O)C(CO)c1ccccc1)C2 (stereo unspecified)
Output: 0.28

Input: Provide measured log10 of Kb value, entry: CC(=N)N1C2CCC1CC(OC(=O)C(CO)c1ccccc1)C2.Cl (stereo unspecified)
Output: 0.21

Input: Provide measured log10 of Kb value, entry: CN1[C@@H]2C[C@@H](OC(=O)[C@H](CO)c3ccccc3)C[C@H]1[C@@H]1O[C@@H]12
Output: -0.40

Input: Provide measured log10 of Kb value, entry: CCCC[N+]1(C)C2CC(OC(=O)C(CO)c3ccccc3)CC1C1OC12.[Br-] (stereo unspecified)
Output: 1.75

---

Species on record: Cavia porcellus
PROCEDURE_TEXT: In vitro functional studies in guinea pig ileum
Classification field: criterion met = Kb at or over 3 nM; criterion not met = Kb under 3 nM.

Input: API: above_or_equal(metric=Kb, cutoff=3 nM) for item CN1[C@@H]2CC[C@H]1C[C@@H](OC(=O)C(CO)c1ccccc1)C2 (stereo not given in full) [ATROPINE]
Output: criterion met

Input: API: above_or_equal(metric=Kb, cutoff=3 nM) for item C[N+]1(C)[C@@H]2CC[C@H]1C[C@@H](OC(=O)C(CO)c1ccccc1)C2 (stereo not given in full) [ATROPINE METHYLBROMIDE]
Output: criterion not met

Input: API: above_or_equal(metric=Kb, cutoff=3 nM) for item Cl.N=C(N)N1C2CC(OC(=O)C(CO)c3ccccc3)CC1C1OC12 (stereo not given)
Output: criterion met

Input: API: above_or_equal(metric=Kb, cutoff=3 nM) for item Cl.N=CN1C2CCC1CC(OC(=O)C(CO)c1ccccc1)C2 (stereo not given)
Output: criterion not met

Input: API: above_or_equal(metric=Kb, cutoff=3 nM) for item CC(=N)N1C2CC(OC(=O)C(CO)c3ccccc3)CC1C1OC12.Cl (stereo not given)
Output: criterion not met

---

For each of the compounds below, state its pKd.
// returns pKd (minus log10 of molar concentration), number only

Input: Write down the reported pKd (system: UniProtKB P10980) of CCCC[N+]1(C)C2CC(OC(=O)C(CO)c3ccccc3)CC1C1OC12.[Br-] (stereo not drawn)
Sequence (P10980 whole entry): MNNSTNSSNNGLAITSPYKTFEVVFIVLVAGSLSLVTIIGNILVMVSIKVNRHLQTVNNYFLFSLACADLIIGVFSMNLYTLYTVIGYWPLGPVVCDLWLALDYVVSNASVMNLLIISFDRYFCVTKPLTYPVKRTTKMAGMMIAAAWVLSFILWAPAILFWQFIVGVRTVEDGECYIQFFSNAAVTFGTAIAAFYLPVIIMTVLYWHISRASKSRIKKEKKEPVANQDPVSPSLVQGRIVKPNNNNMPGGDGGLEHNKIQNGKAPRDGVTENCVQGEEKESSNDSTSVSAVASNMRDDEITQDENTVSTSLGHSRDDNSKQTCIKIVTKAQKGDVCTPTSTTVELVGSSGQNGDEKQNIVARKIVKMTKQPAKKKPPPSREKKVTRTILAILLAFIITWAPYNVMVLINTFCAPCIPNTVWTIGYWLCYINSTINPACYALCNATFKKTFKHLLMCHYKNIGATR
Output: 6.66

Input: Write down the reported pKd (system: UniProtKB P10980) of Cl.N=CN1C2CC(OC(=O)C(CO)c3ccccc3)CC1C1OC12 (stereo not drawn)
Output: 8.00

Input: Write down the reported pKd (system: UniProtKB P10980) of Cl.N=C(N)N1C2CCC1CC(OC(=O)C(CO)c1ccccc1)C2 (stereo not drawn)
Output: 7.96

Input: Write down the reported pKd (system: UniProtKB P10980) of CC(=N)N1C2CC(OC(=O)C(CO)c3ccccc3)CC1C1OC12.Cl (stereo not drawn)
Output: 8.17

Input: Write down the reported pKd (system: UniProtKB P10980) of CC(=N)N1C2CCC1CC(OC(=O)C(CO)c1ccccc1)C2.Cl (stereo not drawn)
Output: 8.00

Input: Write down the reported pKd (system: UniProtKB P10980) of Cl.N=CN1C2CCC1CC(OC(=O)C(CO)c1ccccc1)C2 (stereo not drawn)
Output: 8.80

Input: Write down the reported pKd (system: UniProtKB P10980) of C[N+]1(C)[C@@H]2CC[C@H]1C[C@@H](OC(=O)C(CO)c1ccccc1)C2 (stereo partly drawn) [ATROPINE METHYLBROMIDE]
Output: 8.57

Input: Write down the reported pKd (system: UniProtKB P10980) of Cl.N=C(N)N1C2CC(OC(=O)C(CO)c3ccccc3)CC1C1OC12 (stereo not drawn)
Output: 7.64

---

SUBJECT_OF_TEST: Muscarinic acetylcholine receptor M1 (Rattus norvegicus)
Sequence (P08482 whole entry): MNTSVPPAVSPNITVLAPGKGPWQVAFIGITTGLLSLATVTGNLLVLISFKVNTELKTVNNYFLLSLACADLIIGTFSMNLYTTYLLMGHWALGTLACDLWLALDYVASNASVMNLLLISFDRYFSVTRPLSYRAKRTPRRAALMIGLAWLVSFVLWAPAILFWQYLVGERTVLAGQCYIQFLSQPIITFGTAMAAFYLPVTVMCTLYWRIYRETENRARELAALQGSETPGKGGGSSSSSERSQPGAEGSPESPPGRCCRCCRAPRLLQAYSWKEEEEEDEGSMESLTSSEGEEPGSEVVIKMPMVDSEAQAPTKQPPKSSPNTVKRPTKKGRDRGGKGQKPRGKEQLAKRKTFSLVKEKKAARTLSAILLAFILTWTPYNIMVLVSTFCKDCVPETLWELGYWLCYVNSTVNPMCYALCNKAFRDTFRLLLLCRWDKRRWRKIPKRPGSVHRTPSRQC
ASSAY_READOUT: log10 Kd (log10 of the value in nM)
A difference of one corresponds to tenfold Kd; all values are log10 with Kd in nM.

Input: Provide measured log10 Kd value, entry: Cl.N=CN1C2CCC1CC(OC(=O)C(CO)c1ccccc1)C2 (configuration not stated)
Output: 0.04

Input: Provide measured log10 Kd value, entry: CCCC[N+]1(C)C2CC(OC(=O)C(CO)c3ccccc3)CC1C1OC12.[Br-] (configuration not stated)
Output: 2.48

Input: Provide measured log10 Kd value, entry: Cl.N=C(N)N1C2CCC1CC(OC(=O)C(CO)c1ccccc1)C2 (configuration not stated)
Output: 0.85

Input: Provide measured log10 Kd value, entry: Cl.N=CN1C2CC(OC(=O)C(CO)c3ccccc3)CC1C1OC12 (configuration not stated)
Output: 0.56

Input: Provide measured log10 Kd value, entry: CC(=N)N1C2CCC1CC(OC(=O)C(CO)c1ccccc1)C2.Cl (configuration not stated)
Output: 0.30

Input: Provide measured log10 Kd value, entry: CC(=N)N1C2CC(OC(=O)C(CO)c3ccccc3)CC1C1OC12.Cl (configuration not stated)
Output: 0.53

Input: Provide measured log10 Kd value, entry: Cl.N=C(N)N1C2CC(OC(=O)C(CO)c3ccccc3)CC1C1OC12 (configuration not stated)
Output: 0.88

---

For each of the compounds below, state its pKd.
// returns pKd (minus log10 of molar concentration), number only

Input: Write down the reported pKd (system: Muscarinic acetylcholine receptor M3 (Rattus norvegicus, UniProt P08483)) of Cl.N=C(N)N1C2CC(OC(=O)C(CO)c3ccccc3)CC1C1OC12 (stereo not drawn)
Sequence (P08483 whole entry): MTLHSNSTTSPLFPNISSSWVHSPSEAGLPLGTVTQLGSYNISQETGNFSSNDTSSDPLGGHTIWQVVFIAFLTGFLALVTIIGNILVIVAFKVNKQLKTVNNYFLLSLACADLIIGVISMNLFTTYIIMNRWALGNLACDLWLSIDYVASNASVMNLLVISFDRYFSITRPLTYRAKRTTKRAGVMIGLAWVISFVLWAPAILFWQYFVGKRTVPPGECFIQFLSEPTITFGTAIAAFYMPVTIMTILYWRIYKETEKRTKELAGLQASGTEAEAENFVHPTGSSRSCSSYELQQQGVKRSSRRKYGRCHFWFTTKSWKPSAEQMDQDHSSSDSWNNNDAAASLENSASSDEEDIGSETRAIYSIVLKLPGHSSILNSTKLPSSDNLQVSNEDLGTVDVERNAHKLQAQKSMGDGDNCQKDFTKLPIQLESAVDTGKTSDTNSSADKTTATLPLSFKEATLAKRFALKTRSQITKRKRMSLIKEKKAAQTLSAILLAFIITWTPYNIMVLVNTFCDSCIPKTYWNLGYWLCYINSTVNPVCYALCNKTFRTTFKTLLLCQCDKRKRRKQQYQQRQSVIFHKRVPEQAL
Output: 8.35

Input: Write down the reported pKd (system: Muscarinic acetylcholine receptor M3 (Rattus norvegicus, UniProt P08483)) of CC(=N)N1C2CC(OC(=O)C(CO)c3ccccc3)CC1C1OC12.Cl (stereo not drawn)
Output: 8.46

Input: Write down the reported pKd (system: Muscarinic acetylcholine receptor M3 (Rattus norvegicus, UniProt P08483)) of C[N+]1(C)[C@@H]2CC[C@H]1C[C@@H](OC(=O)C(CO)c1ccccc1)C2 (stereo partly drawn) [ATROPINE METHYLBROMIDE]
Output: 8.59

Input: Write down the reported pKd (system: Muscarinic acetylcholine receptor M3 (Rattus norvegicus, UniProt P08483)) of Cl.N=CN1C2CC(OC(=O)C(CO)c3ccccc3)CC1C1OC12 (stereo not drawn)
Output: 8.30

Input: Write down the reported pKd (system: Muscarinic acetylcholine receptor M3 (Rattus norvegicus, UniProt P08483)) of CC(=N)N1C2CCC1CC(OC(=O)C(CO)c1ccccc1)C2.Cl (stereo not drawn)
Output: 8.51

Input: Write down the reported pKd (system: Muscarinic acetylcholine receptor M3 (Rattus norvegicus, UniProt P08483)) of Cl.N=CN1C2CCC1CC(OC(=O)C(CO)c1ccccc1)C2 (stereo not drawn)
Output: 8.85

Input: Write down the reported pKd (system: Muscarinic acetylcholine receptor M3 (Rattus norvegicus, UniProt P08483)) of CCCC[N+]1(C)C2CC(OC(=O)C(CO)c3ccccc3)CC1C1OC12.[Br-] (stereo not drawn)
Output: 6.66

Input: Write down the reported pKd (system: Muscarinic acetylcholine receptor M3 (Rattus norvegicus, UniProt P08483)) of Cl.N=C(N)N1C2CCC1CC(OC(=O)C(CO)c1ccccc1)C2 (stereo not drawn)
Output: 8.60

---

PROCEDURE_TEXT: pKa value was determined
Type: physicochemical
ASSAY_READOUT: pKa
Hey, just send me the number, nothing else.

Input: Provide measured pKa value, entry: O=C(O[C@@H]1C[C@@H]2N[C@H](C1)[C@@H]1O[C@@H]12)[C@H](CO)c1ccccc1
Output: 7.09

Input: Provide measured pKa value, entry: Cl.N=CN1C2CC(OC(=O)C(CO)c3ccccc3)CC1C1OC12 (configuration not stated)
Output: 9.78

Input: Provide measured pKa value, entry: Cl.N=C(N)N1C2CC(OC(=O)C(CO)c3ccccc3)CC1C1OC12 (configuration not stated)
Output: 10.8

Input: Provide measured pKa value, entry: Cl.N=C(N)N1C2CCC1CC(OC(=O)C(CO)c1ccccc1)C2 (configuration not stated)
Output: 11.6

Input: Provide measured pKa value, entry: CC(=N)N1C2CCC1CC(OC(=O)C(CO)c1ccccc1)C2.Cl (configuration not stated)
Output: 10.9

Input: Provide measured pKa value, entry: Cl.N=CN1C2CCC1CC(OC(=O)C(CO)c1ccccc1)C2 (configuration not stated)
Output: 10.3

Input: Provide measured pKa value, entry: CC(=N)N1C2CC(OC(=O)C(CO)c3ccccc3)CC1C1OC12.Cl (configuration not stated)
Output: 10.7
